measured_target: human chemokine receptor 2 isoform B (CCR2B) (Homo sapiens)
experiment_summary: Calcium mobilization assay (FLIPR, MCP-1 stimulated CHOK1-CCR2B-A5 cells)
assay_conditions: 20 nM MCP-1, antagonist activity, read-out: IC50 (inhibitor concentration required for 50% inhibition of specific calcium increases)
recorded_endpoint: pIC50
Give bare numbers, as −log10 of the molar value.

Take a look at these entries with their results.
Cc1cc(-c2cccc(C(F)(F)F)c2)c(C(=O)NCCO)nc1C(=O)N1CCC(N2CCCC2)CC1	6.89
Cc1cc(-c2cccc(C(F)(F)F)c2)c(C(=O)Nc2cccnc2)nc1C(=O)N1CCC(N2CCCC2)CC1	7.89
Cc1cc(-c2cc(C(F)(F)F)ccc2F)cnc1C(=O)N1CCC(N2CCCC2)CC1	7.60
Cc1cc(-c2cccc(C(F)(F)F)c2)c(NCCO)nc1C(=O)N1CCC(N2CCCC2)CC1	7.39
COc1nc(C(=O)N2CCC(N3CCCC3)CC2)c(Cl)cc1-c1cccc(C(F)(F)F)c1	7.74
Cc1cc(-c2ccc(Cl)c(Cl)c2)cnc1C(=O)N1CCC(N2CCCC2)CC1	6.60
O=C(c1ncc(-c2cccc(C(F)(F)F)c2)cc1Cl)N1CCC(N2CCCC2)CC1	7.92
O=C(c1ncc(-c2cccc(C(F)(F)F)c2)cc1-c1cccc(C(F)(F)F)c1)N1CCC(N2CCCC2)CC1	6.60

Would you mind giving pIC50 for every molecule in the list below?
1. Cc1cc(-c2cccc(C(F)(F)F)c2)c(-n2cnc(Cl)n2)nc1C(=O)N1CCC(N2CCCC2)CC1
2. Cc1cc(-c2cccc(C(F)(F)F)c2)c[n+]([O-])c1C(=O)N1CCC(N2CCCC2)CC1
3. COc1ncc(-c2nc(C(=O)N3CCC(N4CCCC4)CC3)c(C)cc2-c2cccc(C(F)(F)F)c2)cn1
4. Cc1cc(-c2cccc(C(F)(F)F)c2)c(-c2ccc(N)nc2)nc1C(=O)N1CCC(N2CCCC2)CC1
5. Cc1cc(-c2cccc(C(F)(F)F)c2)c(C(=O)O)nc1C(=O)N1CCC(N2CCCC2)CC1

[8.40, 7.64, 7.92, 8.41, 6.51]

---

Kindly supply the reported pIC50 values for the records listed here.
measured_target: human chemokine receptor 2 isoform B (CCR2B) (Homo sapiens)
experiment_summary: Calcium mobilization assay (FLIPR, MCP-1 stimulated CHOK1-CCR2B-A5 cells)
assay_conditions: 20 nM MCP-1, antagonist activity, read-out: IC50 (inhibitor concentration required for 50% inhibition of specific calcium increases)
Answers are plain numbers, as −log10 of the molar value.

Take a look at these entries with their results.
Cc1cc(-c2cccc(C(F)(F)F)c2)c(CO)nc1C(=O)N1CCC(N2CCCC2)CC1 [Example 46]	7.92
Cc1cc(-c2cccc(C(F)(F)F)c2)c(-c2cc[nH]n2)nc1C(=O)N1CCC(N2CCCC2)CC1 [Example 49]	8.00
O=C(c1nc(Cl)c(-c2cccc(C(F)(F)F)c2)cc1Cl)N1CCC(N2CCCC2)CC1 [Example 21]	8.49
CC(=O)N(C(C)=O)c1nc(C(=O)N2CCC(N3CCCC3)CC2)c(C)cc1-c1cccc(C(F)(F)F)c1 [Example 10]	7.11
Cc1cc(-c2cc(C(F)(F)F)ccc2F)c[n+]([O-])c1C(=O)N1CCC(N2CCCC2)CC1 [Example 67]	7.23
Cc1cc(-c2cccc(C(F)(F)F)c2)c(-c2cnc(N)nc2)nc1C(=O)N1CCC(N2CCCC2)CC1 [Example 39]	8.24

Would you mind giving pIC50 for every compound in the list below?
1. Cc1cc(-c2cccc(C(F)(F)F)c2)c(-c2cccnc2)nc1C(=O)N1CCC(N2CCCC2)CC1 [Example 16]
2. Cc1cc(-c2cccc(C(F)(F)F)c2)c(-c2cncnc2)nc1C(=O)N1CCC(N2CCCC2)CC1 [Example 17]
3. Cc1cc(-c2cccc(C(F)(F)F)c2)c(O)nc1C(=O)N1CCC(N2CCCC2)CC1 [Example 9]

8.38
8.06
8.19

Would you mind giving pIC50 for every compound in the list below?
1. Cc1cc(-c2ccc(F)c(C(F)(F)F)c2)cnc1C(=O)N1CCC(N2CCCC2)CC1 [Example 34]
2. Cc1cc(-c2cccc(C(F)(F)F)c2)c(-c2cnc(O)nc2O)nc1C(=O)N1CCC(N2CCCC2)CC1 [Example 54]
3. COc1ccc(CNc2nc(C(=O)N3CCC(N4CCCC4)CC3)c(C)cc2-c2cccc(C(F)(F)F)c2)cc1 [Example 6]
4. COc1nc(C(=O)N2CCC(N3CCCC3)CC2)c(C)cc1-c1cccc(C(F)(F)F)c1 [Example 8]
5. Cc1cc(-c2cc(C(F)(F)F)ccc2Cl)cnc1C(=O)N1CCC(N2CCCC2)CC1 [Example 30]
6. Cc1cc(-c2cccc(C(F)(F)F)c2)c(-c2cnn[nH]2)nc1C(=O)N1CCC(N2CCCC2)CC1 [Example 32]
7. Cc1cc(-c2cccc(C(F)(F)F)c2)c(-c2cnccn2)nc1C(=O)N1CCC(N2CCCC2)CC1 [Example 51]
8. Cc1cc(-c2cccc(C(F)(F)F)c2)c(-c2ccnn2C)nc1C(=O)N1CCC(N2CCCC2)CC1 [Example 53]

7.23
6.92
6.89
7.19
7.27
7.64
8.26
7.82

Would you mind giving pIC50 for every compound in the list below?
1. CC(=O)Nc1nc(C(=O)N2CCC(N3CCCC3)CC2)c(C)cc1-c1cccc(C(F)(F)F)c1 [Example 11]
2. CNC(=O)c1nc(C(=O)N2CCC(N3CCCC3)CC2)c(C)cc1-c1cccc(C(F)(F)F)c1 [Example 58]

7.15
6.72

---

measured_target: human chemokine receptor 2 isoform B (CCR2B) (Homo sapiens)
Sequence (P41597 1-360 isoform P41597-2): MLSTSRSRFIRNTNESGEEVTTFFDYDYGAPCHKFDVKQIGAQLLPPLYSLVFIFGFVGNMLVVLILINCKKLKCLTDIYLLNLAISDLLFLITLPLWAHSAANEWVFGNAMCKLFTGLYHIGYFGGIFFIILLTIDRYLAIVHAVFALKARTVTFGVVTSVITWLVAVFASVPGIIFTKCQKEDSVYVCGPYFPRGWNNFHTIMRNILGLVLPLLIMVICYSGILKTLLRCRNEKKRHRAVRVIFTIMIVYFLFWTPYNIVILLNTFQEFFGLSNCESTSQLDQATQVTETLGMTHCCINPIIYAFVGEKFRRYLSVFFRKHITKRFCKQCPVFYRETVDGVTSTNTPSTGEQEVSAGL
experiment_summary: Calcium mobilization assay (FLIPR, MCP-1 stimulated CHOK1-CCR2B-A5 cells)
assay_conditions: 20 nM MCP-1, antagonist activity, read-out: IC50 (inhibitor concentration required for 50% inhibition of specific calcium increases)
One threshold, 20 nM, splits the recorded IC50 values: lower ones are 1, equal or higher ones are -1.

Cc1cc(-c2cccc(C(F)(F)F)c2)c(NCCN)nc1C(=O)N1CCC(N2CCCC2)CC1	-1
Cc1cc(-c2cccc(C(F)(F)F)c2)c(=O)n(C)c1C(=O)N1CCC(N2CCCC2)CC1	-1
Cc1cc(-c2cccc(C(F)(F)F)c2)c(-c2ccc(O)nc2)nc1C(=O)N1CCC(N2CCCC2)CC1	1
Cc1cc(-c2cccc(C(F)(F)F)c2)c(C(=O)N2CCNCC2)nc1C(=O)N1CCC(N2CCCC2)CC1	-1
Cc1cc(-c2cccc(C(F)(F)F)c2)cnc1C(=O)N1CCC(N2CCC[C@H]2CO)CC1	-1

Check if IC50 falls below 20 nM for `Cc1cc(-c2cccc(C(F)(F)F)c2)c(-c2cn[nH]c2)nc1C(=O)N1CCC(N2CCCC2)CC1` .
1

Check if IC50 falls below 20 nM for `Cc1cc(-c2cccc(C(F)(F)F)c2)c(S)nc1C(=O)N1CCC(N2CCCC2)CC1` .
-1

Check if IC50 falls below 20 nM for `Cc1cc(-c2cccc(C(F)(F)F)c2)c(C(=O)NC2CCN(C(=O)OC(C)(C)C)CC2)nc1C(=O)N1CCC(N2CCCC2)CC1` .
-1

Check if IC50 falls below 20 nM for `Cc1cc(-c2cccc(C(F)(F)F)c2)n(C)c(=O)c1C(=O)N1CCC(N2CCCC2)CC1` .
-1

Check if IC50 falls below 20 nM for `Cc1cc(-c2cccc(C(F)(F)F)c2)c(OCCO)nc1C(=O)N1CCC(N2CCCC2)CC1` .
-1

Check if IC50 falls below 20 nM for `Cc1cc(-c2cccc(C(F)(F)F)c2)c2nnnn2c1C(=O)N1CCC(N2CCCC2)CC1` .
1

Check if IC50 falls below 20 nM for `O=C(c1nc(O)c(-c2cccc(C(F)(F)F)c2)cc1Cl)N1CCC(N2CCCC2)CC1` .
-1

Check if IC50 falls below 20 nM for `COc1ccc(C(F)(F)F)cc1-c1cnc(C(=O)N2CCC(N3CCCC3)CC2)c(C)c1` .
1

Check if IC50 falls below 20 nM for `Cc1cc(-c2cccc(C(F)(F)F)c2)cnc1C(=O)N1CCC(N2CCCC2)CC1` .
1

Check if IC50 falls below 20 nM for `COC(=O)c1nc(C(=O)N2CCC(N3CCCC3)CC2)c(C)cc1-c1cccc(C(F)(F)F)c1` .
1

Check if IC50 falls below 20 nM for `Cc1cc(-c2cccc(C(F)(F)F)c2)nc(N)c1C(=O)N1CCC(N2CCCC2)CC1` .
-1

Check if IC50 falls below 20 nM for `Cc1cc(-c2cccc(C(F)(F)F)c2)c(-c2cnn(C)c2)nc1C(=O)N1CCC(N2CCCC2)CC1` .
1
